List of log10(EC50) values.
# Experimental target: LXRβ (Homo sapiens)
# Construct: Co-transfection expression plasmids, comprising full-length LXRα (pCMX-h LXRα or LXRβ (pCMX-hLXRβ)); expressed in transfected cells; host or cells: CV-1 African green monkey kidney cells, transient transfection with pCMX-hLXRβ
# Sequence (P55055 whole entry): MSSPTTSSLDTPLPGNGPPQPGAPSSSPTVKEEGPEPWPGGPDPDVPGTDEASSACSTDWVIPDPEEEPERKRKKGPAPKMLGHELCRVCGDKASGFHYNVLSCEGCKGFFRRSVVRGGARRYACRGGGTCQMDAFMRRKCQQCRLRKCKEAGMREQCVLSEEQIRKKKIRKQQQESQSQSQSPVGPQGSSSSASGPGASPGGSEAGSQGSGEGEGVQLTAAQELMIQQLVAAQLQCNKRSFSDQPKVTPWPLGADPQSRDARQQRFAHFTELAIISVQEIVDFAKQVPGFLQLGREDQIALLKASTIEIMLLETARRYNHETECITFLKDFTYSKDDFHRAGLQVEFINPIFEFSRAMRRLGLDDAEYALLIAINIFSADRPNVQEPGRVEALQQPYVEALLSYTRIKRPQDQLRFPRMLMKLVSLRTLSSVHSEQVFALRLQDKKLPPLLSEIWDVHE
# Sequence (P19793 whole entry partner): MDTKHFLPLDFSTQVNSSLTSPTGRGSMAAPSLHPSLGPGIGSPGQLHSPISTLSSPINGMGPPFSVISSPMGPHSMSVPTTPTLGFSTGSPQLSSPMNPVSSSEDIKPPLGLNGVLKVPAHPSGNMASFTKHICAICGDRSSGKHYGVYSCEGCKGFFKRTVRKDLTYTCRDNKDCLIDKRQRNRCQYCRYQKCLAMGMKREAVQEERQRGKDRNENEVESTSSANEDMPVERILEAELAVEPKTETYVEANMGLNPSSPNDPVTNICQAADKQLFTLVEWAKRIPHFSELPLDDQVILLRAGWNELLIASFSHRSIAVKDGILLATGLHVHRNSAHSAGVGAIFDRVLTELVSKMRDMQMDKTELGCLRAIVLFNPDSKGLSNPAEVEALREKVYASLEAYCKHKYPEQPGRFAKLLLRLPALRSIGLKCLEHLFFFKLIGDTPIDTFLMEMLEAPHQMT
# Experimental protocol: LXR/LXRE co-transfection assay (luciferase reporter) in CV-1 cells, LXRβ
# Type: cell-based
# Measurement parameters: CV-1 cells transfected with pCMX-hLXRβ and LXREx1-Tk-Luciferase, 20 hours incubation, read-out: LXRbeta agonism EC50
Please note: log10 values; quantity EC50; unit nM.

1) CNC(=O)C(F)(F)c1cc(-c2ccc(-c3cc(F)c(CO)c(S(C)(=O)=O)c3)cc2-c2oc(C)nc2-c2ccc(OC(F)F)c(F)c2)n(C)n1: 1.86
2) Cc1nc(-c2ccc(OC(F)F)cc2)c(-c2cc(-c3cccc(S(C)(=O)=O)c3)ccc2-n2nc(C(F)(F)F)cc2C)o1: 1.43
3) CCOc1cc(C(F)(F)F)nn1-c1ccc(-c2cc(F)c(CO)c(S(C)(=O)=O)c2)cc1-c1nc(C)oc1-c1ccc(OC(F)(F)F)cc1: 2.80
4) CS(=O)(=O)c1cc(-c2ccc(-n3ccc(C(F)(F)F)n3)c(-c3oc(C4CC4)nc3-c3ccc(OC(F)(F)F)cc3)c2)cc(F)c1CO: 1.78
5) Cc1nc(-c2ccc3c(c2)OC(F)(F)O3)c(-c2cc(-c3cccc(S(C)(=O)=O)c3)ccc2-c2cc(-c3nnco3)nn2C)o1: 2.29
6) Cc1nc(-c2ccc3c(c2)OC(F)(F)O3)c(-c2cc(-c3cccc(S(C)(=O)=O)c3)ccc2-c2cc(C(F)(F)C(N)=O)nn2C)o1: 1.62
7) Cn1nc(C(F)(F)C(N)=O)cc1-c1ccc(-c2cc(F)c(CO)c(S(C)(=O)=O)c2)cc1-c1oc(C2CC2)nc1-c1ccc2c(c1)OC(F)(F)O2: 1.40
8) Cc1nc(-c2ccc3c(c2)OC(F)(F)O3)c(-c2cc(-c3cccc(S(C)(=O)=O)c3)ccc2-c2cc(C(C)C#N)nn2C)o1 (stereo not drawn) [Example 117]: 1.69
9) Cn1nc(C(F)(F)CO)cc1-c1ccc(-c2cc(F)c(CO)c(S(C)(=O)=O)c2)cc1-n1nncc1-c1ccc2c(c1)OC(F)(F)O2: 3.44
10) Cc1nc(-c2ccc3c(c2)OC(F)(F)O3)c(-c2cc(-c3cc(F)c(CO)c(S(C)(=O)=O)c3)ccc2-c2cc(C(C)OC(N)=O)nn2C)o1 (stereo not drawn) [Example 132]: 2.20

Notebook: CS(=O)(=O)c1cccc(-c2ccc(-n3ccc(C(F)(F)F)n3)c(-c3oc(C4CC4)nc3-c3ccc(OC(F)(F)F)cc3)c2)c1 , log10(EC50) read as 2.27

The compound listed as Cc1nc(-c2ccc(OC(F)(F)F)cc2)c(-c2cc(-c3cccc(S(C)(=O)=O)c3)ccc2-n2ccc(CC#N)n2)o1 shows log10(EC50) equal to 2.35

* * *

# Experimental target: LXRβ (Homo sapiens)
# Construct: Co-transfection expression plasmids, comprising full-length LXRα (pCMX-h LXRα or LXRβ (pCMX-hLXRβ)); expressed in transfected cells; host or cells: CV-1 African green monkey kidney cells, transient transfection with pCMX-hLXRβ
# Experimental protocol: LXR/LXRE co-transfection assay (luciferase reporter) in CV-1 cells, LXRβ
# Assay type: cell-based
# Measurement parameters: CV-1 cells, relative to maximum response of high control N-(3-((4-fluorophenyl)-(naphthalene-2-sulfonyl)amino)propyl)-2,2-dimethylpropionamide, read-out: LXRbeta % EFFICACY
Measured attribute: Emax (%)
Answer format: numeric, % implied, no suffix.

1. Cc1nc(-c2ccc(OC(F)(F)F)cc2)c(-c2cc(-c3cccc(C(C)(C)C(N)=O)c3)ccc2-n2cc(Cl)c(C(F)(F)F)n2)o1 [Example 430]: 80

Per the record, Cc1nc(-c2ccc(OC(F)(F)F)cc2)c(-c2cc(-c3cccc(S(C)(=O)=O)c3)ccc2-c2cc(C(F)(F)C(C)(C)O)nn2C)o1 [Example 48] has Emax of 27

Emax reading for COc1ncc(-c2nc(C)oc2-c2cc(-c3cccc(S(C)(=O)=O)c3)ccc2-n2cc(Cl)c(C(F)(F)F)n2)cn1 [Example 427] : 58

// recorded Emax for Cc1nc(-c2ccc(OC(F)(F)F)cc2)c(-c2cc(-c3cnc(CO)c(S(C)(=O)=O)c3)ccc2-n2cc(Cl)c(C(F)(F)F)n2)o1 [Example 314] : 68

For this compound ( Cc1nc(-c2cc(-c3cccc(S(C)(=O)=O)c3)ccc2-n2nc(C(F)(F)F)cc2Cl)c(-c2ccc(OC(F)(F)F)cc2)o1 [Example 406] ), measured Emax is 63

Entry under test: Cc1nc(-c2ccc(Cl)cc2Cl)c(-c2cc(-c3cccc(S(C)(=O)=O)c3)ccc2-n2cc(Cl)c(C(F)(F)F)n2)o1 [Example 423] . Its Emax was 78
